# TARGET_SYSTEM: Nuclear receptor subfamily 1 group I member 3 (Homo sapiens)
# ASSAY_NAME: qHTS assay to identify small molecule agonists of the constitutive androstane receptor (CAR) signaling pathway (AID 1224839); further: nearly all actives have a fitted effect of over 15% in size;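 on activation: HepG2 cells stably carrying human CAR and a CYP2B6 luciferase reporter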
# RUN_CONDITIONS: HepG2 hCAR CYP2B6-luciferase, agonist mode, 24 h; series mostly up to 92.4 µM
Records with an inconclusive call do not appear. Active and inactive are the calls of the source. The call rests on the fitted dose curve; in most records, active means well fitted activation curve with a large enough effect in the repeat runs; inconclusive means weak or mixed curves; inactive means no such curve, though single readings can be large or run the other way.
API: response.call in y = active, n = inactive

Record excerpt, results attached:
CCC(N)(CO)CO    n
O=C(Nc1ccc(Oc2ccc(Cl)cc2)c(Cl)c1)c1cc(I)cc(I)c1O    n
CC(C)(C)NC(=O)[C@@H]1C[C@@H]2CCCC[C@@H]2CN1C[C@@H](O)[C@H](Cc1ccccc1)NC(=O)[C@H](CC(N)=O)NC(=O)c1ccc2ccccc2n1    n
CSc1ccc(/C=C2/C(C)=C(CC(=O)O)c3cc(F)ccc32)cc1    n
Cc1cc(=O)oc2cc(N(C)C)ccc12    y

What did this assay record as the result for `C/C(=C(/OCCOc1ccc(Cl)cc1)c1ccc(Cl)cc1Cl)n1ccnc1` ?
n

What did this assay record as the result for `Oc1c(Cl)cc(Cl)c2cccnc12` ?
n

What did this assay record as the result for `C=CC(=O)OCCn1c(=O)n(CCOC(=O)C=C)c(=O)n(CCOC(=O)C=C)c1=O` ?
n

What did this assay record as the result for `COc1cc(-c2ccc(N=C=O)c(OC)c2)ccc1N=C=O` ?
n

Origin of values: PubChem BioAssay (Tox21)
